Target: T1, human glypican-3 (GPC3) (human, UniProt P51654 25-554)
T1 construct: Endogenous on JHH-7, JHH-5, HepG2 and NCI-H446 tumour cells, or transiently expressed on CHO-S cells from a pTT5 plasmid; also called hGPC3; huGPC3
Test: flow cytometry on JHH-7 cells (GPC3-high);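 further: antibody binding at 4 °C for 24 h, detected with anti-human AF647 secondary, geometric mean fluorescence of live cells versus antibody concentration, fitted as specific binding with Hill slope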
Consider the following binders; for each one, report its Bmax (MFI).

Incoming: Look up and state reported Bmax (MFI) for H18L6_LC_N33S mAb, v40221 (antibody, human IgG1, kappa, V domains shown, M3-H18L6 chains with the stated light chain point mutation, IgG1/kappa) VH: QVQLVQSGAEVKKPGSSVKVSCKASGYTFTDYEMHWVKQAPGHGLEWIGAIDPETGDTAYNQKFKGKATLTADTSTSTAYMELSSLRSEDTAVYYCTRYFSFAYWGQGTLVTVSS VL: EIVLTQSPATLSLSPGERATISCRSSQSLRHSSGNTYLQWYQQKPGQAPRLLIYKVSNRFSGVPARFSGSGSGTDFTLTISSLEPEDFAVYFCYQSKHVPYTFGGGTKVEIKR
Outgoing: 7220 MFI

Incoming: Supply recorded Bmax (MFI) for H18L6_LC_N33K mAb, v40217 (antibody, human IgG1, kappa, V domains shown, M3-H18L6 chains with the stated light chain point mutation, IgG1/kappa) VH: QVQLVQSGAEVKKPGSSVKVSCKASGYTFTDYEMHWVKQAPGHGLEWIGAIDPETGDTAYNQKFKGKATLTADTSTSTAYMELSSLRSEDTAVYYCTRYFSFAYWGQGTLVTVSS VL: EIVLTQSPATLSLSPGERATISCRSSQSLRHSKGNTYLQWYQQKPGQAPRLLIYKVSNRFSGVPARFSGSGSGTDFTLTISSLEPEDFAVYFCYQSKHVPYTFGGGTKVEIKR here.
Outgoing: 9230 MFI

Incoming: Supply recorded Bmax (MFI) for H18L6_LC_N33T mAb, v40214 (antibody, human IgG1, kappa, V domains shown, M3-H18L6 chains with the stated light chain point mutation, IgG1/kappa) VH: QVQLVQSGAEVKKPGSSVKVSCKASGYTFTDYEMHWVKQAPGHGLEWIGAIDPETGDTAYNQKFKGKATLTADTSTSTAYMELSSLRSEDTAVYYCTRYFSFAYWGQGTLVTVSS VL: EIVLTQSPATLSLSPGERATISCRSSQSLRHSTGNTYLQWYQQKPGQAPRLLIYKVSNRFSGVPARFSGSGSGTDFTLTISSLEPEDFAVYFCYQSKHVPYTFGGGTKVEIKR here.
Outgoing: 9990 MFI
